Cited source: the supplement of paper PMC10724198

- System: Saccharomyces cerevisiae;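 note: PSI is a weighted mean of sequencing reads over stability bins, variants kept only with over 10 reads, mCherry proximal and sfGFP distal, peptide attached via GGGS linker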
- Assay Explanation: protein stability index of tFT-peptide fusion (C-terminal peptide) (PSI (0-1 scale)); higher = more stable (slower turnover)
- Particulars: genetic background: wild type; temperature: 30 C

{"Seq Text": "QLMAYFDITYSS", "protein stability index": 0.723}
{"Seq Text": "RGKKKAKIYREH", "protein stability index": 0.766}
{"Seq Text": "GVGFGGGGVWME", "protein stability index": 0.746}
{"Seq Text": "NTNEKKRQRKKK", "protein stability index": 0.639}
{"Seq Text": "SGGVKGKKKGEK", "protein stability index": 0.702}
{"Seq Text": "AGCGGIWGVWVL", "protein stability index": 0.701}
{"Seq Text": "MALAVRVVVCGA", "protein stability index": 0.184}
{"Seq Text": "WTDHISEHLHTV", "protein stability index": 0.742}
{"Seq Text": "PCPLPVPCCLRP", "protein stability index": 0.636}
{"Seq Text": "INGTEYVVGRKA", "protein stability index": 0.686}
{"Seq Text": "KRLNRVHRSTKV", "protein stability index": 0.687}
{"Seq Text": "NSRCSIQGAPLL", "protein stability index": 0.726}
{"Seq Text": "PASPCTPLPFSP", "protein stability index": 0.686}
{"Seq Text": "KITLKSNKTTDN", "protein stability index": 0.741}
{"Seq Text": "VLVWLRLRVGLR", "protein stability index": 0.3}
{"Seq Text": "DSSPIESAVAPS", "protein stability index": 0.716}
{"Seq Text": "SLPPTLPPRSCP", "protein stability index": 0.621}
{"Seq Text": "PSAPFPPVYPLH", "protein stability index": 0.687}
{"Seq Text": "HSPHISAPPLPY", "protein stability index": 0.588}
{"Seq Text": "RSPRLRSRVRVP", "protein stability index": 0.639}
{"Seq Text": "RKSPRDTGLQRA", "protein stability index": 0.706}
{"Seq Text": "KKKQAILRTLKI", "protein stability index": 0.406}
{"Seq Text": "RWCLELLWITSC", "protein stability index": 0.162}
{"Seq Text": "GGALNGVGNGEL", "protein stability index": 0.67}
{"Seq Text": "AFMVFCRSLLAP", "protein stability index": 0.684}
{"Seq Text": "SSLPPPAPSFVP", "protein stability index": 0.646}
{"Seq Text": "FDLPPCVPRARP", "protein stability index": 0.767}
{"Seq Text": "SNIGFLLCSLFL", "protein stability index": 0.591}
{"Seq Text": "ISVRKTFLIVLC", "protein stability index": 0.232}
{"Seq Text": "SPPPPLELIPSP", "protein stability index": 0.534}
{"Seq Text": "YSVSAALPREFR", "protein stability index": 0.773}
{"Seq Text": "HHGCATVTSRAS", "protein stability index": 0.654}
{"Seq Text": "PPPRPHTPPQLA", "protein stability index": 0.708}
{"Seq Text": "RKLAEVNCTVKV", "protein stability index": 0.664}
{"Seq Text": "LVLLRLSSLTIF", "protein stability index": 0.404}
{"Seq Text": "INKKETKKNKIK", "protein stability index": 0.612}
{"Seq Text": "LSVGPIWFSCQA", "protein stability index": 0.605}
{"Seq Text": "PPALSSNPVIPG", "protein stability index": 0.626}
{"Seq Text": "DLSCCVFLCLFF", "protein stability index": 0.513}
{"Seq Text": "KHLNFNTNKRKD", "protein stability index": 0.651}
{"Seq Text": "PARPPPPRPPPP", "protein stability index": 0.712}
